Target: histamine-3 receptors (H3 receptor) (Rattus norvegicus, UniProt Q9QYN8)
Sequence (Q9QYN8 whole entry): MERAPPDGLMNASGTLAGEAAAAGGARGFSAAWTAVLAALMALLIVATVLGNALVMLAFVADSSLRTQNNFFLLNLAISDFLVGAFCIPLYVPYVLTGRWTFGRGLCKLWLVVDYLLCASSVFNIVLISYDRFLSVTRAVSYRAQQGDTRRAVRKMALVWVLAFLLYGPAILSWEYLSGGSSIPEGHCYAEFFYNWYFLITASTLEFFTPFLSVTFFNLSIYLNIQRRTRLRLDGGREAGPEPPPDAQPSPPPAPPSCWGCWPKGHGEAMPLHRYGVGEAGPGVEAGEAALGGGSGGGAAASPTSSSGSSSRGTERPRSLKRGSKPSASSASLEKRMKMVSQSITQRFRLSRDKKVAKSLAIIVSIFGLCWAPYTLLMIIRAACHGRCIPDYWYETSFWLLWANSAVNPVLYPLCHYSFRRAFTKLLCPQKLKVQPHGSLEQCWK
pKi: −log10 of the molar value.
# class assignment by measured pKi: low range = under 7, mid range = from 7 up to 8, high range = 8 and over

Sample answers from the record:
{"Item Smiles": "C[C@@H]1CCCN1CCc1cc2cc(-c3cccc(CO)c3)ccc2o1", "Label Value": "high range"}
{"Item Smiles": "COC(=O)[C@@H]1CCCN1CCc1cc2cc(-c3ccc(C#N)cc3)ccc2o1", "Label Value": "low range"}

Which bin, given its pKi, does CCON=C(C)c1cccc(-c2ccc3oc(CCN4CCC[C@H]4C)cc3c2)c1 occupy?
mid range

How about Cc1ccccc1-c1ccc2oc(CCN3CCC[C@H]3C)cc2c1 ?
mid range

C[C@@H]1CCCN1CCc1cc2cc(-c3noc(-c4ccc(F)c(Cl)c4)n3)ccc2o1 , same question.
low range

Follow-up entry: CCCc1nc(-c2ccc3oc(CCN4CCC[C@H]4C)cc3c2)no1
high range

Repeat for the following compound: Cc1cc(C)cc(-c2ccc3oc(CCN4CCC[C@H]4C)cc3c2)c1
mid range

* * *

Entries with reported pKi on histamine-3 receptors (H3 receptor) (Rattus norvegicus, UniProt Q9QYN8)
Answers are plain numbers, as −log10 of the molar value.

Some solved entries appear below for comparison.
{"Compound": "C[C@@H]1CCCN1CCc1cc2ccc(-c3ccc(C#N)cc3)cc2o1", "Observed Result": 8.46}
{"Compound": "C[C@@H]1CCCN1CCc1cc2c(-c3ccc(C#N)cc3)cccc2o1", "Observed Result": 7.38}
{"Compound": "C[C@@H]1CCCN1CCc1cc2cc(-c3noc(Cc4cccs4)n3)ccc2o1", "Observed Result": 7.80}
{"Compound": "N#Cc1ccc(-c2ccc3oc(CCN4CCC[C@H]4CF)cc3c2)cc1", "Observed Result": 7.62}
{"Compound": "Cc1cc(C#N)ccc1-c1ccc2oc(CCN3CCC[C@H]3C)cc2c1", "Observed Result": 8.10}
{"Compound": "C[C@@H]1CCCN1CCc1cc2cc(-c3ccc(C#N)cc3)cc(F)c2o1", "Observed Result": 8.22}

Could you tell me pKi for each of these compounds? They are listed below.
1. O=C(c1ccc(-c2ccc3oc(CCN4CCC[C@H]4CO)cc3c2)cc1)N1CCOCC1
2. CC(C)CC(=O)c1cccc(-c2ccc3oc(CCN4CCC[C@H]4C)cc3c2)c1
3. N#Cc1ccc(-c2ccc3oc(CCN4CCCC4)cc3c2)cc1
4. CC[C@@H]1CCCN1CCc1cc2cc(-c3ccc(C#N)cc3)ccc2o1
5. Cc1cc(-c2ccc3oc(CCN4CCC[C@H]4C)c(Br)c3c2)ccc1C#N
6. Cc1cc(-c2ccc(C#N)cc2)cc2cc(CCN3CCC[C@H]3C)oc12
7. C[C@@H]1CCCN1CCc1cc2cc(-c3cccc(Cl)c3)ccc2o1

1. 8.16
2. 7.72
3. 7.33
4. 8.43
5. 7.80
6. 8.00
7. 7.47

* * *

The reader will find Ki measurements below, all made with histamine-3 receptors (H3 receptor) (Rattus norvegicus, UniProt Q9QYN8).
Numbers only, in nM.

Before answering, review these 2 worked examples.
{"Item Smiles": "C[C@@H]1CCCN1CCc1oc2ccc(-c3ccc(C#N)cc3)cc2c1-c1ccsc1C=O", "Assay Target": "histamine-3 receptors (H3 receptor) (Rattus norvegicus, UniProt Q9QYN8)", "Ki [nM]": 6}
{"Item Smiles": "COc1ccc(Cc2nc(-c3ccc4oc(CCN5CCC[C@H]5C)cc4c3)no2)cc1", "Assay Target": "histamine-3 receptors (H3 receptor) (Rattus norvegicus, UniProt Q9QYN8)", "Ki [nM]": 15}

Would you be so kind as to report Ki for each listed record?
1. C[C@@H]1CCCN1CCc1cc2cc(-c3cccc(C=O)c3)ccc2o1
2. N#Cc1ccc(-c2ccc3oc(CCN4CCCCC4)cc3c2)cc1
3. Cc1ccc(-c2ccc3oc(CCN4CCC[C@H]4C)cc3c2)cc1

1: 3.3; 2: 58.8; 3: 110

Origin of measurements: patent US6969730B2
